# Tested on: 786-0 renal
# Test Summary: NCI tumour cell line growth inhibition, 48 h; in the data active = GI50 below about 0.43 µM; inactive = the rest
# output must be one of active, inactive

Past entries and their recorded results:
>>> label("O=C(NC1CCN(Cc2ccccc2)CC1)c1cc(-c2ccncc2)nc2ccc(Cl)cc12")
"inactive"
>>> label("CC(=O)N[C@@H](Cc1ccc(OP(=O)(O)O)cc1)C(=O)N[C@H]1CCC(=O)N2CCC[C@@H](C(=O)NCc3ccc(Cl)cc3)N2C1=O")
"inactive"
>>> label("COC(=O)CCC(=O)C(=O)OC")
"inactive"
>>> label("CCOC(=O)c1c2c(c(O)c3ccccc3c(O)n(Cc3ccc(OC)cc3)c1C)C(=O)C=CC2=O")
"inactive"
>>> label("F")
"inactive"
>>> label("Cc1cccc(NC(=O)CCc2ccc(N3C(N)=NC(N)=NC3(C)C)cc2)c1")
"inactive"
>>> label("O=C1c2ccccc2-c2c1c1ccccc1c(=O)n2CCCCNCCCn1c2c(c3ccccc3c1=O)C(=O)c1ccccc1-2")
"active"
>>> label("COc1cc(C(=O)/C=C/c2c(C)n([O-])c3ccc(C)cc3[n+]2=O)cc(OC)c1OC")
"inactive"

Query block: Assay result, entry CN=C(N)N/N=C(\C)c1ccc2c(c1)Cc1cc(/C(C)=N/NC(N)=NC)ccc1-2 — outcome?
Result block: inactive

Query block: Assay result, entry CC(=O)NCCc1c2c(c3nccc4c3c1Nc1ccccc1-4)OCS2 — outcome?
Result block: inactive
